Biological target: Threonyl-tRNA synthase (Phytophthora sojae)
Sequence (G3FIN0 whole entry): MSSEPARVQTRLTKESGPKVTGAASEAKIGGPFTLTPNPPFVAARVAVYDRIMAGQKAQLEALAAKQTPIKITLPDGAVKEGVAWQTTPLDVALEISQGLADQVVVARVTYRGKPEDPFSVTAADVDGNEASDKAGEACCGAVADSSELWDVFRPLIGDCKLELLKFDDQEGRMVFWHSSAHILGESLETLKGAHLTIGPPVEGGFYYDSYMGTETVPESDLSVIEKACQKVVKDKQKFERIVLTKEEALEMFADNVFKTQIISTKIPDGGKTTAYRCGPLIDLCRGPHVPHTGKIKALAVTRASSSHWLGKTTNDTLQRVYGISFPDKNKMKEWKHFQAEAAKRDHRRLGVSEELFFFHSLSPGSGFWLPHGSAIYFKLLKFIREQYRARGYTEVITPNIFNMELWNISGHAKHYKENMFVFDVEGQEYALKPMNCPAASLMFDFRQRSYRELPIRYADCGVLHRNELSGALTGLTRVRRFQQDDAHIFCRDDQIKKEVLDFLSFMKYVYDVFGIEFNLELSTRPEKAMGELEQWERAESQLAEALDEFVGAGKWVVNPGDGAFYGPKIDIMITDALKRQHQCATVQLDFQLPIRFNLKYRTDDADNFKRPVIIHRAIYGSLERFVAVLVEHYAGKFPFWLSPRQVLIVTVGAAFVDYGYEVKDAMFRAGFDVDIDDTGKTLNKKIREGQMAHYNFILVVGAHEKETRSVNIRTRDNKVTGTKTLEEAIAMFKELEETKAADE
Test: Inhibition of C-terminal His6-tagged Phytophthora sojae race 1 recombinant ThrRS expressed in Escherichia coli BL21 (Codonplus DE3) assessed as reduction in initial velocity at the step of threonine activation preincubated for 10 min with 4 uM enzyme before threonine addition measured after 30 min by HPLC analysis
Conditions: read-out: Ki(app)
pKi: −log10 of the molar value.
property-name: pKi

| smiles-data | property-name | recorded-number |
| --- | --- | --- |
| C[C@@H]1C[C@H](C)C[C@H](C)[C@@H](O)CC(=O)O[C@H]([C@@H]2CCC[C@H]2C(=O)O)C/C=C/C=C(/C#N)[C@H](O)[C@@H](C)C1 | pKi | 5.00 |
